Values were extracted from patent US20230278972A1.

Test system: Ryegrass, Italian (Italian ryegrass, Lolium multiflorum)
test details: Test A1 preemergence, Ryegrass, Italian
Format: in vivo
measurement conditions: 31 g ai/ha, 0 to 100 scale (0 no effect, 100 complete control)
Description: […]
readout kind: Plant response rating, Ryegrass, Italian

stdin: Write Plant response rating, Ryegrass, Italian of `Cc1c(C(=O)N2CCCCC2)cc(NS(=O)(=O)C(F)(F)F)c(Cl)c1F` ; system used: Ryegrass, Italian (Italian ryegrass, Lolium multiflorum)
stdout: 30

stdin: For Ryegrass, Italian (Italian ryegrass, Lolium multiflorum), give the measured Plant response rating, Ryegrass, Italian of the entry `Cc1c(NS(=O)(=O)C(F)(F)F)cc(C(=O)N2CCC(F)(F)CC2)c(C)c1C`
stdout: 0

stdin: Give reported Plant response rating, Ryegrass, Italian for Cc1cc(C)c(N(COC(=O)C(C)C)S(=O)(=O)C(F)(F)F)cc1C1=NOC2CCCC12 (stereo not shown) (Ryegrass, Italian (Italian ryegrass, Lolium multiflorum))
stdout: 60

stdin: Send back Ryegrass, Italian (Italian ryegrass, Lolium multiflorum) Plant response rating, Ryegrass, Italian of `CCOC(=O)N(c1cc(C(=O)N2CCOCC2)c(C)cc1C)S(=O)(=O)C(F)(F)F` only.
stdout: 80

###

Assign Plant response rating, Corn to each entry below.
Test system: corn (Zea mays)
test details: Test A1 preemergence, corn
Format: in vivo
measurement conditions: 125 g ai/ha, 0 to 100 scale, 0 no effect, 100 complete control
Returns: the value as a bare number; no unit string appended.

stdin: Please indicate recorded Plant response rating, Corn of CCOC(=O)N(c1cc(C(=O)N2CCOCC2)c(C)c(C)c1C)S(=O)(=O)C(F)(F)F [Compound 325] measured with corn (Zea mays).
stdout: 40

stdin: Give the observed Plant response rating, Corn of CCc1cc(C)c(N(COC(=O)C(C)(C)C)S(=O)(=O)C(F)(F)F)cc1C1=NOC2CCCC12 (stereo not shown) [Compound 378] for corn (Zea mays).
stdout: 0

stdin: Please respond with reported Plant response rating, Corn (system corn (Zea mays)) for COc1cccc2c1C(=O)N(c1cc(N(COC(=O)C(C)(C)C)S(=O)(=O)Cl)c(C)cc1C)C2 [Compound 413] .
stdout: 10

stdin: Provide Plant response rating, Corn, system corn (Zea mays), entry Cc1cc(C)c(N(S(=O)(=O)C(F)(F)F)S(=O)(=O)C(F)(F)F)cc1N1CCC2(CCC(C(F)(F)F)CC2)C1=O (stereo not shown) [Compound 399]
stdout: 0

stdin: Please report Plant response rating, Corn with corn (Zea mays) for item CCOC(=O)N(c1cc(C2=NOC3CCCC23)c(CC)cc1C)S(=O)(=O)C(F)(F)F (stereo not shown) [Compound 379] .
stdout: 0

stdin: Quote corn (Zea mays) Plant response rating, Corn for entry CCOC(=O)N(c1cc(C(=O)N2CCSCC2)c(C)c(C)c1C)S(=O)(=O)C(F)(F)F [Compound 286] .
stdout: 0

stdin: Print corn (Zea mays) Plant response rating, Corn for Cc1c(NS(=O)(=O)C(F)(F)F)cc(C(=O)N2CCC(F)(F)CC2)c(C)c1C [Compound 357] .
stdout: 90

###

System: ragweed (common ragweed, Ambrosia artemisiifolia)
test details: Test A postemergence, ragweed
Type: in vivo
measurement conditions: Postemergence, 31 g ai/ha; visual injury on 0 to 100 scale (0 no effect, 100 complete control), approx. 10 days
readout kind: Plant response rating, Ragweed
Give the figure only, with no unit attached.

stdin: State its Plant response rating, Ragweed for this molecule: Cc1cc(C)c(C(=O)N2CCCC(F)C2)cc1NS(=O)(=O)C(F)(F)F (stereo not shown)
stdout: 60

stdin: Give me measured Plant response rating, Ragweed, please, for this molecule: CCOC1CCCN(C(=O)c2cc(NS(=O)(=O)C(F)(F)F)c(C)cc2C)C1 (stereo not shown)
stdout: 0

stdin: Identify the reported Plant response rating, Ragweed for the following entry. Cc1cc(C)c(C2=NOC3CCCCC23)cc1NS(=O)(=O)C(F)(F)F (stereo not shown)
stdout: 30

stdin: Tell me its Plant response rating, Ragweed given Cc1cc(C)c(N(S(=O)(=O)C(F)(F)F)S(=O)(=O)C(F)(F)F)cc1C(=O)N1CCCC(F)C1 (stereo not shown) as the entry.
stdout: 20
